experiment: cells; assay type: functional, cell-based
A collection of compounds and their measured EC50

Sample answers from the record:
> print(dat)
                                   compound  endpointname          recordedvalue
1            CCN1CCN(c2ncnc3ccc(Br)cc23)CC1          EC50  > 350 µM (not active)
2  CC(=O)c1cccc(N(C(=O)c2ccccn2)C(C(=O)NC2CCCCC2)c2ccccc2)c1 (stereo not given)          EC50  > 350 µM (not active)
3  O=C(NC(=S)Nc1cccc([N+](=O)[O-])c1)c1ccco1          EC50  > 350 µM (not active)
4   COc1ccc(C(=O)NCCCOC(=O)c2ccc(OC)cc2)cc1          EC50  > 350 µM (not active)

Alright, here's another compound for you.
**Query** Returns the measured EC50 for the input compound. Input: `COc1ccc(/C=N/Nc2ncnc3sc4c(c23)CCCC4)cc1OC`
**Result** > 350 µM (not active)

Each recorded value in this set is attributed to ChEMBL document CHEMBL1201862.
